- Tgt: MaxL homodimer (Homo sapiens, UniProt P61244 1-160)
- Sequence (P61244 whole entry): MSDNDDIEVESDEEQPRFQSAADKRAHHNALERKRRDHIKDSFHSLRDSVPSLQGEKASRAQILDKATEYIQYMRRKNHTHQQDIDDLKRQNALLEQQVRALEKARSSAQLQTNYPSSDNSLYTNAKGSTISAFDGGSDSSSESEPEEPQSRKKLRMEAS
- Experimental protocol: universal protein-binding microarray (PBM); PBS-based mixture, 10 nM His-tagged protein dimer, 2% milk, 200 ng/uL BSA, 50 ng/uL salmon testes DNA, 0.02% TX-100; detection with Alexa 488 anti-His antibody;; high values mean tight binding;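 also: fluorescence intensity normalized to that of the highest-ranked 8-mer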
- Assay conditions: protein: recombinant; tags: C-terminal His-tag (pET21a); chain copies: 2; dsDNA, one strand shown
Over roughly 33,000 sequences, “normalized occupancy” has its median near 0.075; the highest 2% begin near 0.095. This excerpt belongs to a sample that is enriched for the highest values.
Note to self: values exactly at 0.08 normalized occupancy are Y. So binding signal at or above 0.08 normalized occupancy is Y, below is N.

Query: Please indicate if the recorded binding signal for GCAACAGA meets or exceeds 0.08 normalized occupancy.
Response: N

Query: Continue with GCGTGACC
Response: Y

Query: Continue with CGTGTGCA
Response: Y

Query: Continue with AGTTTTTG
Response: N

Query: Continue with CACGATGG
Response: Y

Query: Continue with GCACGTGA
Response: Y

Query: Continue with ACATCACG
Response: Y

Hey, just so you know, these numbers are from paper PMC4242493.
